These data points were gathered from BigSolDB 2.1.

# STUDY CONDITIONS: in acetone, 310.75 K
METRIC: solubility (mole fraction)
Lab note: jot the number down without any unit.

Bench note: what solubility (mole fraction) did "O=C(O)CCCCCCC(=O)O" show?
0.0208

---

# STUDY CONDITIONS: in n-propanol, 283.15 K
METRIC: solubility (mole fraction)

Bench note: what solubility (mole fraction) did "O=C(O)CCCCCCC(=O)O" show?
0.012

---

# STUDY CONDITIONS: in ethanol, 324.85 K
METRIC: solubility (mole fraction)
Lab note: jot the number down without any unit.

Bench note: what solubility (mole fraction) did "O=C(O)CCCCCCC(=O)O" show?
0.0795
